# measurement-target: ~100 representative kinases (Homo sapiens, UniProt O43293)
# Construct: Recombinant protein kinase domains with a concentration of 2 μM
# Sequence (O43293 whole entry, the tested form may be a part): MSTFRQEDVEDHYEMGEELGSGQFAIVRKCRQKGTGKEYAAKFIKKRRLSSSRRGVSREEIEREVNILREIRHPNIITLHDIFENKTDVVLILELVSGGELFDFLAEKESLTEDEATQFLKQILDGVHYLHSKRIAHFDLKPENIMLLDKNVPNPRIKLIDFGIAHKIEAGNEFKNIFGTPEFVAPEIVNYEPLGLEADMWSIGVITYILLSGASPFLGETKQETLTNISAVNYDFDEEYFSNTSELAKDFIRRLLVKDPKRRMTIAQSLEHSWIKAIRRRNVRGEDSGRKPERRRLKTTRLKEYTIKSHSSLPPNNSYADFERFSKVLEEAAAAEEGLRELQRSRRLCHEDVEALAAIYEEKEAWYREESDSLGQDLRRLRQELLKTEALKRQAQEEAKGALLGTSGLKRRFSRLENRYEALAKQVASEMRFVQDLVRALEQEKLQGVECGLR
# assay-overview: DSF 100 kinase selectivity screen;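 further: compound tested at 20 µM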
# Assay type: binding
# settings: Protein DAPK3; average of three replicates
Assign dTm to each entry below.
Numbers only, in K.

These recorded examples may help you get a feel for the data.
> print(dat)
                                   compound  obs.value
1  Cc1ccc(C(=O)Nc2ccc(CN3CCN(C)CC3)c(C(F)(F)F)c2)cc1C#Cc1cnc2[nH]ncc2c1 [GZD-824, reference compound]       0.50
2  O=C(Nc1cccc(-c2c[nH]c3ncnc(N4CCOCC4)c23)c1)C1(C(=O)Nc2ccc(F)c(Cl)c2)CC1      10.62

Parameter requested: dTm. Apply to each item below.
1. O=C(Nc1cccc(-c2c[nH]c3ncnc(N4CCOCC4)c23)c1)C1(C(=O)Nc2cccc3c2CCC3)CC1
2. Cc1ccc(-n2nc(C(C)(C)C)cc2NC(=O)Nc2cccc(-c3c[nH]c4ncnc(N5CCOCC5)c34)c2)cc1
3. CCc1ccc(NC(=O)C2(C(=O)Nc3cccc(-c4c[nH]c5ncnc(N6CCOCC6)c45)c3)CC2)cc1
4. COc1cc(C(=O)N2CCOCC2)c(F)cc1Nc1nc(N(C)C)c2c(Cl)c[nH]c2n1
5. Cn1cc(-c2c[nH]c3ncnc(N4CCOCC4)c23)cc1C#N
6. CCSc1nc(NC)c2c(-c3cccc(NC(=O)Nc4cc(C(C)(C)C)nn4-c4ccc(C)cc4)c3)c[nH]c2n1
7. O=C(Nc1ccccc1)C1(C(=O)Nc2cccc(-c3c[nH]c4ncnc(N5CCOCC5)c34)c2)CC1
8. CNC(=O)c1cc(Oc2ccc(NC(=O)Nc3cc(C(C)(C)C)nn3-c3ccc4ncccc4c3)c(F)c2)ccn1 [Rebastinib, reference compound]

Ans:
[3.33, 0.00, 3.77, 6.29, 1.10, 1.05, 6.20, 5.73]

Parameter requested: dTm. Apply to each item below.
1. C[C@@H]1CN(c2cc(-c3n[nH]c4ccc(OC5(C)CC5)cc34)ncn2)C[C@H](C)O1
2. Cc1cc(F)ccc1NC(=O)C1(C(=O)Nc2cccc(-c3c[nH]c4ncnc(N5CCOCC5)c34)c2)CC1
3. CC(C)(C)c1cc(NC(=O)Nc2cccc(-c3c[nH]c4ncnc(N5CCOCC5)c34)c2)n(-c2ccc3ncccc3c2)n1
4. Cc1ccc(C(=O)Nc2ccc(CN3CCN(C)CC3)c(C(F)(F)F)c2)cc1C#Cc1c[nH]c2ncnc(N3CCOCC3)c12

Ans:
1: 1.94; 2: 2.09; 3: 14.79; 4: 0.53

Parameter requested: dTm. Apply to each item below.
1. O=C(Nc1ccc(Cl)cc1)C1(C(=O)Nc2cccc(-c3c[nH]c4ncnc(N5CCOCC5)c34)c2)CC1
2. COc1cc(S(C)(=O)=O)ccc1Nc1nc(N(C)C)c2c(Cl)c[nH]c2n1

Ans:
[8.55, 3.62]

----------
# measurement-target: ~100 representative kinases (Homo sapiens)
# Construct: Recombinant protein kinase domains with a concentration of 2 μM
# assay-overview: DSF 100 kinase selectivity screen;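 further: compound tested at 20 µM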
# Format: binding
# settings: Protein EPHA5; average of three replicates
Could you mark each record Fulfilled if its dTm falls strictly under 2 K, and Not fulfilled if it equals or exceeds it?

A selection of reference data follows.
> print(dat)
                                   compound    label.value
1  Cc1cc(F)ccc1NC(=O)C1(C(=O)Nc2cccc(-c3c[nH]c4ncnc(N5CCOCC5)c34)c2)CC1 [Compound 24]      Fulfilled
2  O=C(Nc1cccc(-c2c[nH]c3ncnc(N4CCOCC4)c23)c1)C1(C(=O)Nc2ccc(F)c(Cl)c2)CC1 [Compound 18]  Not fulfilled
3  Cc1cc(NC(=O)C2(C(=O)Nc3cccc(-c4c[nH]c5ncnc(N6CCOCC6)c45)c3)CC2)ccc1F [Compound 20]  Not fulfilled

Q: Does O=C(Nc1cc(F)cc(Br)c1)C1(C(=O)Nc2cccc(-c3c[nH]c4ncnc(N5CCOCC5)c34)c2)CC1 [Compound 27] have dTm strictly under 2 K?
Ans: Fulfilled

Q: Okay, and COc1cc(C(=O)N2CCOCC2)c(F)cc1Nc1nc(N(C)C)c2c(Cl)c[nH]c2n1 [Compound 36] ?
Ans: Fulfilled

Q: Okay, and Cc1ccc(-n2nc(C(C)(C)C)cc2NC(=O)Nc2cccc(-c3c[nH]c4nc(Cl)nc(N5CCOCC5)c34)c2)cc1 [Compound 30] ?
Ans: Fulfilled

----------
Assign dTm to each entry below.
# measurement-target: ~100 representative kinases (Homo sapiens)
# Construct: Recombinant protein kinase domains with a concentration of 2 μM
# assay-overview: DSF 100 kinase selectivity screen;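 further: compound tested at 20 µM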
# Format: binding
# settings: Protein EPHA2; average of three replicates
# Experimental: Recombinant protein kinase domains with a concentration of 2 μM were mixed with a 20 μM compound solution in dimethyl sulfoxide (DMSO), 20 mM Hepes (pH 7.5), and 500 mM NaCl. SYPRO Orange (5000×, Invitrogen) was added as a fluorescence probe (1μl/ml). Subsequently, temperature-dependent protein unfolding profiles were measured using the QuantStudio 5 realtime PCR machine (Thermo Fisher Scientific, Waltham, MA, USA). […] The temperature was raised with a step rate of 3°C/min. […]

> print(dat)
                           smiles.structure  obs.value
1  O=C(Nc1cccc(-c2c[nH]c3ncnc(N4CCOCC4)c23)c1)C1(C(=O)Nc2ccc(F)cc2F)CC1     4.60 K
2  O=C(Nc1cccc(-c2c[nH]c3ncnc(N4CCOCC4)c23)c1)C1(C(=O)Nc2cccc3c2CCC3)CC1     1.56 K
3  Cc1ccc(-n2nc(C(C)(C)C)cc2NC(=O)Nc2cccc(-c3c[nH]c4ncnc(N5CCOCC5)c34)c2)cc1    10.91 K

Please look at the following compound next.
Q: Would you kindly share the measured dTm for Cc1ccc(C(=O)Nc2ccc(CN3CCN(C)CC3)c(C(F)(F)F)c2)cc1C#Cc1c[nH]c2ncnc(N3CCOCC3)c12 ?
Ans: 3.44 K

----------
# Test system: ~100 representative kinases
# assay-overview: DSF 100 kinase selectivity screen;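 further: compound tested at 20 µM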
# Format: binding
# settings: Protein BRD; average of three replicates
endpoint: dTm (K)
Numbers only, in K.

> print(dat)
                           smiles.structure  obs.value
1  O=C(Nc1cccc(-c2c[nH]c3ncnc(N4CCOCC4)c23)c1)c1cccn(-c2ccc(F)cc2)c1=O      -1.99
2  CCSc1nc(NC)c2c(-c3cccc(NC(=O)Nc4cc(C(C)(C)C)nn4-c4ccc(C)cc4)c3)c[nH]c2n1      -0.35
3  CC(=O)N1CCN(c2nc(Cl)nc3[nH]cc(-c4cccc(NC(=O)Nc5cc(C(C)(C)C)nn5-c5ccc(C)cc5)c4)c23)CC1      -3.84

Please look at the following molecule next.
Q: Would you kindly share the measured dTm for Cc1ccc(NC(=O)C2(C(=O)Nc3cccc(-c4c[nH]c5ncnc(N6CCOCC6)c45)c3)CC2)cc1 ?
Ans: -1.11

----------
# measurement-target: ~100 representative kinases (Homo sapiens)
# Construct: Recombinant protein kinase domains with a concentration of 2 μM
# Sequence (Q8TF76 1-798): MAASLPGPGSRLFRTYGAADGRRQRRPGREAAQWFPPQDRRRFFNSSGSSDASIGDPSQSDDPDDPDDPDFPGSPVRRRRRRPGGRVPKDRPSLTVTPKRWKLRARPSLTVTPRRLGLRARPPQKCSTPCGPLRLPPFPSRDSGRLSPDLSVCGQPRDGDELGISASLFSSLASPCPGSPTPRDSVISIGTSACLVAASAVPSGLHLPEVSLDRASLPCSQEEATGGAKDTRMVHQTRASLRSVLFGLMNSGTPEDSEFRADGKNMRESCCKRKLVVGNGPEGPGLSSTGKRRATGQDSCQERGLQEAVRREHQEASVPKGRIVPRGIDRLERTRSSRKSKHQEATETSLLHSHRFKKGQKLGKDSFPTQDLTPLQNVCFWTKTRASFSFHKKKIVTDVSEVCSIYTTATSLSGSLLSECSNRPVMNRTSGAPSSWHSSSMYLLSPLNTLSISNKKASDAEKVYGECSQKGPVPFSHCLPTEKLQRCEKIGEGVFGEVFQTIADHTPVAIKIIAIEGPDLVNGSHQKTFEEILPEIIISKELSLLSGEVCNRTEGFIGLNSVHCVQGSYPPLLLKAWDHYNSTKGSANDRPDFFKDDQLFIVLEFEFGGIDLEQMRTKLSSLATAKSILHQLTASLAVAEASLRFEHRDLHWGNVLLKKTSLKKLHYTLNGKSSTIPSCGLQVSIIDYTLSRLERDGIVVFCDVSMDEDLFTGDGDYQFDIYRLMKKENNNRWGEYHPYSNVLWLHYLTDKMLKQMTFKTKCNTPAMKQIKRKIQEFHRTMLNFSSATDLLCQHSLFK
# assay-overview: DSF 100 kinase selectivity screen;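 further: compound tested at 20 µM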
# Format: binding
# settings: protein GSG2; average of three replicates
endpoint: dTm (K)
Give bare numbers, in K.

These recorded examples may help you get a feel for the data.
> print(dat)
                                   compound  unit.of.measurement  obs.value
1  O=C(Nc1cc(F)cc(Br)c1)C1(C(=O)Nc2cccc(-c3c[nH]c4ncnc(N5CCOCC5)c34)c2)CC1 [Compound 27]                    K      -3.53
2  Cc1ccc(-n2nc(C(C)(C)C)cc2NC(=O)Nc2cccc(-c3c[nH]c4nc(Cl)nc(N5CCOCC5)c34)c2)cc1 [Compound 30]                    K      -1.55
3  CC(C)(C)c1cccc(NC(=O)C2(C(=O)Nc3cccc(-c4c[nH]c5ncnc(N6CCOCC6)c45)c3)CC2)c1 [Compound 22]                    K      -2.85

Please look at the following compound next.
Q: Would you kindly share the measured dTm for O=C(Nc1cccc(-c2c[nH]c3ncnc(N4CCOCC4)c23)c1)C1(C(=O)Nc2ccc(F)cc2F)CC1 [Compound 23] ?
Ans: -2.84
